// MBC lookup, one value per entry
# Test system: Staphylococcus aureus
# experiment-summary: Bactericidal activity against methicillin-sensitive Staphylococcus aureus ATCC 33591 after overnight incubation
# Type: functional
Entry rule: numbers only, all in µg/mL.

Query MBC for COC(=O)[C@@H]1NC(=O)[C@H]2NC(=O)[C@H](NC(=O)[C@@H]3NC(=O)[C@H]4NC(=O)[C@@H](Cc5ccc(c(Cl)c5)Oc5cc3cc(c5O)Oc3ccc(cc3Cl)[C@H]2O[C@@H]2O[C@H](CO)[C@@H](O)[C@H](O)[C@H]2NC(C)=O)NC(=O)[C@H](N=[N+]=[N-])c2ccc(O)c(c2)Oc2cc(O)cc4c2)c2ccc(O)c(c2)-c2c(O)cc(O)cc21 8

Answer with the recorded MBC for the molecule listed here: CCCCCCCCCCOCc1cn([C@H]2C(=O)N[C@@H]3Cc4ccc(c(Cl)c4)Oc4cc5cc(c4O)Oc4ccc(cc4Cl)[C@@H](O[C@@H]4O[C@H](CO)[C@@H](O)[C@H](O)[C@H]4NC(C)=O)[C@@H]4NC(=O)[C@H](NC(=O)[C@@H]5NC(=O)[C@@H](NC3=O)c3cc(O)cc(c3)Oc3cc2ccc3O)c2ccc(O)c(c2)-c2c(O)cc(O)cc2[C@H](C(=O)OC)NC4=O)nn1 0.5

Give MBC for CC(=O)N[C@H]1[C@H](O[C@@H]2c3ccc(c(Cl)c3)Oc3cc4cc(c3O)Oc3ccc(cc3Cl)C[C@H]3NC(=O)[C@H](n5cc(COc6ccc(-c7ccccc7)cc6)nn5)c5ccc(O)c(c5)Oc5cc(O)cc(c5)[C@H](NC3=O)C(=O)N[C@H]4C(=O)N[C@H]3C(=O)N[C@@H]2C(=O)N[C@@H](C(=O)O)c2cc(O)cc(O)c2-c2cc3ccc2O)O[C@H](CO)[C@@H](O)[C@@H]1O 0.25
